molecular target: KLK5 (UniProt Q9Y337 67-293, limits assumed); test: cell-based or functional assay
Sequence (Q9Y337 67-293 limits assumed): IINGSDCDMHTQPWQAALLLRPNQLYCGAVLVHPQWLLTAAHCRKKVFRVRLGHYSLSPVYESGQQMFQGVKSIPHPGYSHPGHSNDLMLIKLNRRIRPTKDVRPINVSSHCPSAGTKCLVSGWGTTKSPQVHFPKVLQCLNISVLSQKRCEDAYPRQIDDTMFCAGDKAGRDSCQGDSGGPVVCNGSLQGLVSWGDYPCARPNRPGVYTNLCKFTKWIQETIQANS
Listed next: entries and their corresponding KLK5 IC50 nM pH 5.5 (enzymatic activity).
Quick note: give the figure in nM, leave out the unit.

Below are worked cases with known answers.
[
  {
    "binder": "Spink9-236.Fc (SEQ ID NO: 60) (Fc fusion, Mutant SPINK9 domain fused directly to a C-terminal IgG Fc) IECAKQTKQMVDCSHYKKLPPEQQLMCTREYDPICGSDGKTYKNDCFFCSKVKKTDGTLKFVHFGKCEPKSCDKTHTCPPCPAPEAAGGPSVFLFPPKPKDTLMISRTPEVTCVVVDVSHEDPEVKFNWYVDGVEVHNAKTKPREEQYNSTYRVVSVLTVLHQDWLNGKEYKCKVSNKALPAPIEKTISKAKGQPREPQVYTLPPSREEMTKNQVSLTCLVKGFYPSDIAVEWESNGQPENNYKTTPPVLDSDGSFFLYSKLTVDKSRWQQGNVFSCSVLHEALHSHYTQKSLSLSPGK",
    "metric-name": "KLK5 IC50 nM pH 5.5 (enzymatic activity)",
    "reading": 3.5
  },
  {
    "binder": "Spink9-183.Fc (SEQ ID NO: 57) (Fc fusion, Mutant SPINK9 domain fused directly to a C-terminal IgG Fc) IECAKQTKQMVDCSHYKKLPPQQQAYCTRDYDPICGSDGKTYKNDCFFCSKVKKTDGTLKFVHFGKCEPKSCDKTHTCPPCPAPEAAGGPSVFLFPPKPKDTLMISRTPEVTCVVVDVSHEDPEVKFNWYVDGVEVHNAKTKPREEQYNSTYRVVSVLTVLHQDWLNGKEYKCKVSNKALPAPIEKTISKAKGQPREPQVYTLPPSREEMTKNQVSLTCLVKGFYPSDIAVEWESNGQPENNYKTTPPVLDSDGSFFLYSKLTVDKSRWQQGNVFSCSVLHEALHSHYTQKSLSLSPGK",
    "metric-name": "KLK5 IC50 nM pH 5.5 (enzymatic activity)",
    "reading": 3
  },
  {
    "binder": "Spink9-30.Fc (SEQ ID NO: 55) (Fc fusion, Mutant SPINK9 domain fused directly to a C-terminal IgG Fc) IECAKQTKQMVDCSHYKKLPPEQVSWCTREYDPICGSDGKTYKNDCFFCSKVKKTDGTLKFVHFGKCEPKSCDKTHTCPPCPAPEAAGGPSVFLFPPKPKDTLMISRTPEVTCVVVDVSHEDPEVKFNWYVDGVEVHNAKTKPREEQYNSTYRVVSVLTVLHQDWLNGKEYKCKVSNKALPAPIEKTISKAKGQPREPQVYTLPPSREEMTKNQVSLTCLVKGFYPSDIAVEWESNGQPENNYKTTPPVLDSDGSFFLYSKLTVDKSRWQQGNVFSCSVLHEALHSHYTQKSLSLSPGK",
    "metric-name": "KLK5 IC50 nM pH 5.5 (enzymatic activity)",
    "reading": 2.4
  },
  {
    "binder": "Spink9-112.K62G.Fc (SEQ ID NO: 56) (Fc fusion, Mutant SPINK9 domain fused directly to a C-terminal IgG Fc) IECAKQTKQMVDCSHYKKLPPEQELYCTREYDPICGSDGKTYGNDCFFCSKVKKTDGTLKFVHFGKCEPKSCDKTHTCPPCPAPEAAGGPSVFLFPPKPKDTLMISRTPEVTCVVVDVSHEDPEVKFNWYVDGVEVHNAKTKPREEQYNSTYRVVSVLTVLHQDWLNGKEYKCKVSNKALPAPIEKTISKAKGQPREPQVYTLPPSREEMTKNQVSLTCLVKGFYPSDIAVEWESNGQPENNYKTTPPVLDSDGSFFLYSKLTVDKSRWQQGNVFSCSVLHEALHSHYTQKSLSLSPGK",
    "metric-name": "KLK5 IC50 nM pH 5.5 (enzymatic activity)",
    "reading": 0.9
  }
]

Name the recorded KLK5 IC50 nM pH 5.5 (enzymatic activity) for Spink9-186.Fc (SEQ ID NO: 58) (Fc fusion, Mutant SPINK9 domain fused directly to a C-terminal IgG Fc) IECAKQTKQMVDCSHYKKLPPAQLIYCTKEYDPICGSDGKTYKNDCFFCSKVKKTDGTLKFVHFGKCEPKSCDKTHTCPPCPAPEAAGGPSVFLFPPKPKDTLMISRTPEVTCVVVDVSHEDPEVKFNWYVDGVEVHNAKTKPREEQYNSTYRVVSVLTVLHQDWLNGKEYKCKVSNKALPAPIEKTISKAKGQPREPQVYTLPPSREEMTKNQVSLTCLVKGFYPSDIAVEWESNGQPENNYKTTPPVLDSDGSFFLYSKLTVDKSRWQQGNVFSCSVLHEALHSHYTQKSLSLSPGK .
8.3
